The entries below come with measured Mean normalized OD values attached.
System Name: T1, full-length trimeric SARS-CoV-2 Spike protein (Spike-H6) (SARS-CoV-2, N-glycosylated (22 N-glycosylation sites))
T1 construct: also called trimeric Spike; full-length Spike-H6
Test Summary: ELISA screen
Respond with the bare value in OD.

Worked cases, Mean normalized OD given:
1) Clec1a CRD-mouse IgG2a-Fc fusion protein (Fc fusion) YGDKCYQFYKESKNWQSCEYFCLADNATMLKISTQEELDFAMPQSYSEFFYSYWTGLSRNGSGKAWLWTDGTPYSFELFEIIIDPTNLRNRDCMTIFNGKAYSKDCKELRRCACEGGGSGGGSGGGS	-0.005
2) Mrc2_3 CRD-mouse IgG2a-Fc fusion protein (Fc fusion) HSPSCYWLGEDQVIYSDARRLCTDHGSQLVTITNRFEQAFVSSLIYNWEGEYFWTALQDLNSTGSFRWLSGDEVIYTHWNRDQPGYRRGGCVALATGSAMGLWEVKNCTSFRARYICGGGSGGGSGGGS	0.003
3) Cd209b CRD-mouse IgG2a-Fc fusion protein (Fc fusion) FLLGNCYFFSKSQRNWNDAVTACKEVKAQLVIINSDEEQTFLQQTSKAKGPTWMGLSDLKKEATWLWVDGSTLSSRFQKYWNRGEPNNIGEEDCVEFAGDGWNDSKCELKKFWICKGGGSGGGSGGGS	-0.032
4) Layn CRD-mouse IgG2a-Fc fusion protein (Fc fusion) TRRPCYKVIYFHDAFQRLNFEEAKETCMEDGGQLVSIETEDEQRLIEKFIENLLASDGDFWIGLKRLEEKQSNNTACQDLYAWTDGSTSQFRNWYVDEPSCGSEVCVVMYHQPSAPPGIGGSYMFQWNDDRCNMKNNFICKGGGSGGGSGGGS	0.002
5) Clec4g CRD-mouse IgG2a-Fc fusion protein (Fc fusion) FQGSCYYFSETQATWDTAQSYCGGQGAHLVIVRGLNEQGFLSQHTRGRGYWLGLRAVRHLNKIQGYRWVDGASLNFSHWNSGEPNDSRGHEDCIMMLHSGLWNDAPCTNERDGWICGGGSGGGSGGGS	1.68
6) Olr1 CRD-mouse IgG2a-Fc fusion protein (Fc fusion) HKENCYLFHGPFSWEKNRQTCQSLGGQLLQINGADDLTFILQAISHTTSPFWIGLHRKKPGQPWLWENGTPLNFQFFKTRGVSLQLYSSGNCAYLQDGAVFAENCILIAFSICQGGGSGGGSGGGS	0.083
7) Pla2r1_2 CRD-mouse IgG2a-Fc fusion protein (Fc fusion) FNRKCYKLKKDRKSWLGALHSCQSNDSVLMDVASLAEVEFLVSLLRDENASETWIGLSSNKIPVSFEWSSGSSVIFTNWYPLEPRILPNRRQLCVSAEESDGRWKVKDCKERLFYICKGGGSGGGSGGGS	0.001
8) Mrc2_8 CRD-mouse IgG2a-Fc fusion protein (Fc fusion) FREHCYSFHMEVLLGHKEALQRCQKAGGTVLSILDEMENVFVWEHLQTAEAQSRGAWLGMNFNPKGGTLVWQDNTAVNYSNWGPPGLGPSMLSHNSCYWIQSSSGLWRPGACTNITMGVVCGGGSGGGSGGGS	0

Recorded result, Clec2e CRD-mouse IgG2a-Fc fusion protein (Fc fusion) FGNKCFYFSEDMGNWTFSQSSCIALDAHLALFDSLEELNFLKRYKGASDHWIGLHRESSEHPWIWTDNTEYNNLVLTRGGGECAYLSNRGIYNSSGDIHKKWICNGGGSGGGSGGGS , Mean normalized OD: 0.017

What the record says about Dgcr2 CRD-mouse IgG2a-Fc fusion protein (Fc fusion) CPSGWHHYEGTASCYRVYLSGENYWDAAQTCQRVNGSLATFSTDQELRFVLAQEWDQPERSFGWKDQRKLWVGYQYVITGRNHSLEGRWEVAFKGSPEVFLPPDPIFASAMSENDNVFCAQLQCFHFGGGSGGGSGGGS : Mean normalized OD is 0.005

Sure, the documented Mean normalized OD for Cd209a CRD-mouse IgG2a-Fc fusion protein (Fc fusion) FQGSCYFFSVAQKSWNDSATACHNVGAQLVVIKSDEEQNFLQQTSKKRGYTWMGLIDMSKESTWYWVDGSPLTLSFMKYWSKGEPNNLGEEDCAEFRDDGWNDTKCTNKKFWICKGGGSGGGSGGGS is 0.014

What the record says about Sftpd CRD-mouse IgG2a-Fc fusion protein (Fc fusion) VGDKIFRTADSEKPFEDAQEMCKQAGGQLASPRSATENAAIQQLITAHNKAAFLSMTDVGTEGKFTYPTGEPLVYSNWAPGEPNNNGGAENCVEIFTNGQWNDKACGEQRLVICEFGGGSGGGSGGGS : Mean normalized OD is 0.031

The binder listed as Asgr2 CRD-mouse IgG2a-Fc fusion protein (Fc fusion) CCPVNWVEFGGSCYWFSRDGLTWAEADQYCQLENAHLLVINSREEQDFVVKHRSQFHIWIGLTDRDGSWKWVDGTDYRSNYRNWAFTQPDNWQGHEQGGGEDCAEILSDGHWNDNFCQQVNRWVCEKGGGSGGGSGGGS shows Mean normalized OD equal to 0.003

Quick note, Mean normalized OD for Clec12b CRD-mouse IgG2a-Fc fusion protein (Fc fusion) YGNSCYYFSINEEKSWSDSRKDCIDKNATLVKIDSTEERDLLQSQLSLTFSFFWLGLSWNSSGRNWLWEDGSFPPPTLFSDKELASFNGSRDCAYFERGNIYASRCSAEIPWICEGGGSGGGSGGGS landed at 0.002
